# TESTED_ON: central benzodiazepine receptors (BDZ-Rs)
# TEST_DETAILS: 3H-FNZ binding to rat brain synaptosomal membranes (Section 3)
# CONDITION_SET: hippocampus, n=2; read-out: Ki SEM, 3H-FNZ binding
ENDPOINT_LABEL: Ki (nM)
// return numeric value only (unit: nM, not printed)

Briefly, Ki measured for O=c1cc(-c2cccc([N+](=O)[O-])c2)oc2ccc(Br)cc12 [Compound (IV), 6-bromo-3'-nitroflavone] : 9.6

* * *

# TESTED_ON: central benzodiazepine receptor
# TEST_DETAILS: [3H]-FNZ binding to crude synaptosomal membranes from rat CNS regions
# Parameters: species or system rat (Wistar)
# CONDITION_SET: cortical membranes, low affinity site; read-out: low affinity Ki value
ENDPOINT_LABEL: pKi
Note on pKi: it is the negative log10 of concentration, concentration in mol/L.

Briefly, pKi measured for Cc1nnc2ccc(-c3cccc(C(F)(F)F)c3)nn12 [CL 218,872, reference compound] : 5.92

* * *

# TESTED_ON: central benzodiazepine receptor
# TEST_DETAILS: [3H]-FNZ binding to crude synaptosomal membranes from rat CNS regions
# Design: species or system rat (Wistar)
# CONDITION_SET: rat striatum; read-out: Ki, [3H]-FNZ binding
ENDPOINT_LABEL: Ki (nM)
// return numeric value only (unit: nM, not printed)

Briefly, Ki measured for "O=c1cc(-c2cccc([N+](=O)[O-])c2)oc2ccc([N+](=O)[O-])cc12" : 44.1

* * *

# TESTED_ON: central benzodiazepine receptors (BDZ-Rs)
# TEST_DETAILS: 3H-FNZ binding to rat brain synaptosomal membranes (Section 3)
# CONDITION_SET: cerebellum, n=4; read-out: Ki SEM, 3H-FNZ binding
ENDPOINT_LABEL: pKi
Note on pKi: it is the negative log10 of concentration, concentration in mol/L.

Briefly, pKi measured for "O=c1cc(-c2cccc([N+](=O)[O-])c2)oc2ccc(Br)cc12" : 8.44

* * *

# TESTED_ON: central benzodiazepine receptors
# TEST_DETAILS: Autoradiographic [3H]-FNZ displacement on rat brain sections
# Type: binding, rat (Wistar)
# CONDITION_SET: striatum, n=3; read-out: Ki, [3H]-FNZ binding, autoradiography
# Procedure: Wistar rats were decapitated and brains rapidly removed. Sagittal sections (15 μm in thickness) were prepared at -20° C. using a microtome-cryostat. The tissue slices were kept frozen at -70° C. until used. For DNF displacement curves to [^3 H]--FNZ binding (0.65 nM), tissue sections were incubated for 60 min at 4° C. in 25 mM Tris HCl buffer, pH 7.4, in presence of different concentrations of DNF (1-600 nM). For non-specific binding we used 10 μM FNZ. […]
ENDPOINT_LABEL: Ki (nM)
// return numeric value only (unit: nM, not printed)

Briefly, Ki measured for "O=c1cc(-c2cccc([N+](=O)[O-])c2)oc2ccc([N+](=O)[O-])cc12" : 53.7

* * *

# TESTED_ON: central benzodiazepine receptor
# TEST_DETAILS: [3H]-FNZ binding to crude synaptosomal membranes from rat CNS regions
# Design: species or system rat (Wistar)
# CONDITION_SET: rat striatum and spinal cord (range over both); read-out: Ki, [3H]-FNZ binding
ENDPOINT_LABEL: Ki

Considering O=c1cc(-c2cccc([N+](=O)[O-])c2)oc2ccc([N+](=O)[O-])cc12 [Compound (II), 6,3'-dinitroflavone] , its Ki with central benzodiazepine receptor was recorded as 44 to 48 nM
